# TEST TARGET: CB1R (Rattus norvegicus)
# Construct: membranes prepared from brain tissue of 4-week-old male rodents were used; from tissue; host or cells: rat cerebellar membranes
# Sequence (P20272 whole entry): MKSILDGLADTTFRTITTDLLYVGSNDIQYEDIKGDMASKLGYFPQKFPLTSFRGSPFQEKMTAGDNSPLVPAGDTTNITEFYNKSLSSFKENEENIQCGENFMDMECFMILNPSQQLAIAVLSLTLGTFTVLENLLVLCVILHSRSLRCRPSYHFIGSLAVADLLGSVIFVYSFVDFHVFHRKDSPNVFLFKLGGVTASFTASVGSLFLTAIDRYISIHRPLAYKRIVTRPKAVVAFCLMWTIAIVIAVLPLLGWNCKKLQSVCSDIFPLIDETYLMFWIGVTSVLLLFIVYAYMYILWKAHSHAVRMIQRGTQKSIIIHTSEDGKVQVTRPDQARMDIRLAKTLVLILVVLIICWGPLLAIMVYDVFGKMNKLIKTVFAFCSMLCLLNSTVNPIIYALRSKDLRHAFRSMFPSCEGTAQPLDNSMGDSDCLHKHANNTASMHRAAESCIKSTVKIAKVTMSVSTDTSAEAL
# METHOD SUMMARY: [35S]GTPγS binding, CB1R agonist activity, rat cerebellar membranes
# Format: biochemical
# ASSAY CONTEXT: 10 µM
MEASUREMENT TYPE: CB1R agonist activity [35S]GTPγS binding % Basal (Mean (range), n=2)

COMPOUND	RESULT
C=C(C)C1CCC2(C(=O)O)CCC3(C)C(CCC4C5(C)Cc6c([nH]c7ccccc67)C(C)(C)C5CCC43C)C12 (stereo not shown) [Compound 33]	95 (94-96) % Basal
C=C(C)[C@@H]1CC[C@]2(C(=O)O)CC[C@]3(C)[C@H](CC[C@@H]4[C@@]5(C)CC[C@H](O)C(C)(C)[C@@H]5CC[C@]43C)[C@@H]12 [Compound 1, Betulinic acid, reference compound]	91 (87-96) % Basal
CC(C)[C@@H]1CC[C@]2(C(=O)O)CC[C@]3(C)[C@H](CC[C@@H]4[C@@]5(C)CCC(=O)C(C)(C)[C@@H]5CC[C@]43C)[C@@H]12 [Compound 23]	89 (86-92) % Basal
CC1(C)CC[C@]2(C(=O)O)CC[C@]3(C)C(=CC[C@@H]4[C@@]5(C)C[C@@H](O)[C@H](O)C(C)(C)[C@@H]5CC[C@]43C)[C@@H]2C1 [Compound 8, Maslinic acid, reference compound]	93 (88-97) % Basal

----------
# TEST TARGET: hABHD6 (Homo sapiens, UniProt Q9BV23)
# Construct: expressed in transfected cells; host or cells: HEK293 (transient)
# Sequence (Q9BV23 whole entry): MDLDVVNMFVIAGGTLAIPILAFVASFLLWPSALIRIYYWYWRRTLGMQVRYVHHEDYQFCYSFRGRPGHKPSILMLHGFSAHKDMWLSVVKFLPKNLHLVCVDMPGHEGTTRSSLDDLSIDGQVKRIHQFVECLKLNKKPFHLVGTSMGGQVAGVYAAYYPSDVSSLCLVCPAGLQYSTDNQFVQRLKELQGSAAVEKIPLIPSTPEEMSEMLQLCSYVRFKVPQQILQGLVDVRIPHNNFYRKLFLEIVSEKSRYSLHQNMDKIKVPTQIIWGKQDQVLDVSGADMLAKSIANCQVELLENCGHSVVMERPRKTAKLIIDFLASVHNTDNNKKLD
# METHOD SUMMARY: Fluorescent glycerol assay in hABHD6-HEK293 lysates
# Format: biochemical
# ASSAY CONTEXT: 10 µM; NI = no inhibition at 10 µM; read-out: hABHD6 Remaining activity % control ± s.e.m (n=3)
MEASUREMENT TYPE: remaining activity at 10 µM (%)

COMPOUND	MEASUREMENT TYPE	RECORDED NUMBER
C=C(C)[C@@H]1CC[C@]2(C(=O)O)CC[C@]3(C)[C@H](CC[C@@H]4[C@@]5(C)CCC(=O)NC(C)(C)[C@@H]5CC[C@]43C)[C@@H]12	remaining activity at 10 µM	80
C=C(C)[C@@H]1CC[C@]2(C=NO)CC[C@]3(C)[C@H](CC[C@@H]4[C@@]5(C)CCC(=NO)C(C)(C)[C@@H]5CC[C@]43C)[C@@H]12	remaining activity at 10 µM	103
C=C(C)[C@@H]1CC[C@]2(C(=O)O)CC[C@]3(C)[C@H](CC[C@@H]4[C@@]5(C)CC6OC(C)(C)OC6C(C)(C)[C@@H]5CC[C@]43C)[C@@H]12 (stereo partly shown)	remaining activity at 10 µM	93.2
C=C(C)[C@@H]1CC[C@]2(C=O)CC[C@]3(C)[C@H](CC[C@@H]4[C@@]5(C)CCC(=O)C(C)(C)[C@@H]5CC[C@]43C)[C@@H]12	remaining activity at 10 µM	93.6

----------
# TEST TARGET: hABHD12 (Homo sapiens, UniProt Q8N2K0)
# Construct: expressed in transfected cells; host or cells: HEK293 (transient)
# METHOD SUMMARY: Fluorescent glycerol assay of 1-AG hydrolysis in hABHD12-HEK293 lysates
# Type: biochemical
# ASSAY CONTEXT: hABHD12-HEK293 lysates, three independent experiments; read-out: -logIC50±s.e.m. (converted)

COMPOUND	IC50 / µM
C=C(C)[C@@H]1CC[C@]2(C(=O)O)CC[C@]3(C)[C@H](CC[C@@H]4[C@@]5(C)Cc6cccnc6C(C)(C)[C@@H]5CC[C@]43C)[C@@H]12 [Compound 41]	6.61
CC(C)[C@@H]1CC[C@]2(C(=O)O)CC[C@]3(C)[C@H](CC[C@@H]4[C@@]5(C)CCC(=O)C(C)(C)[C@@H]5CC[C@]43C)[C@@H]12 [Compound 23]	1.62
C=C(C)[C@@H]1CC[C@]2(C(=O)O)CC[C@]3(C)[C@H](CC[C@@H]4[C@@]5(C)CC(O)C(O)C(C)(C)[C@@H]5CC[C@]43C)[C@@H]12 (stereo partly drawn) [Compound 32, 2β,3β-Dihydroxylup-20(29)-en-28-oic acid]	3.72
C=C(C)[C@@H]1CC[C@]2(C(=O)O)CC[C@]3(C)[C@H](CC[C@@H]4[C@@]5(C)Cc6c([nH]c7ccc(OC)cc67)C(C)(C)[C@@H]5CC[C@]43C)[C@@H]12 [Compound 34]	1.62
C=C(C)[C@@H]1CC[C@]2(C(=O)O)CC[C@]3(C)[C@H](CC[C@@H]4[C@@]5(C)Cc6nccnc6C(C)(C)[C@@H]5CC[C@]43C)[C@@H]12 [Compound 42]	3.55

----------
remaining activity at 10 µM values by entry
# TEST TARGET: hABHD12 (Homo sapiens, UniProt Q8N2K0)
# Construct: expressed in transfected cells; host or cells: HEK293 (transient)
# METHOD SUMMARY: Fluorescent glycerol assay of 1-AG hydrolysis in hABHD12-HEK293 lysates
# Assay type: biochemical
# ASSAY CONTEXT: hABHD12-HEK293 lysates, 10 µM; NI = no inhibition; read-out: Remaining activity at 10 µM % ± s.e.m.

COMPOUND	TEST TARGET	remaining activity at 10 µM
C=C(C)[C@@H]1CC[C@]2(COC(=O)/C=C/c3ccccc3)CC[C@]3(C)[C@H](CC[C@@H]4[C@@]5(C)CC[C@H](O)C(C)(C)[C@@H]5CC[C@]43C)[C@@H]12	hABHD12 (Homo sapiens, UniProt Q8N2K0)	> 100%
CC1=C(O)C(=O)C=C2C1=CC=C1[C@@]2(C)CC[C@@]2(C)[C@@H]3C[C@](C)(C(=O)O)CC[C@]3(C)CC[C@]12C [Compound 14, Celastrol, reference compound]	hABHD12 (Homo sapiens, UniProt Q8N2K0)	> 100%
C=C(C)[C@@H]1CC[C@]2(COC(=O)CCC(C)=O)CC[C@]3(C)[C@H](CC[C@@H]4[C@@]5(C)CC[C@H](OC(=O)CCC(C)=O)C(C)(C)[C@@H]5CC[C@]43C)[C@@H]12	hABHD12 (Homo sapiens, UniProt Q8N2K0)	> 100%
CC(C)[C@@]12CC[C@]3(CO)CC[C@]4(C)C(=C31)C(C[C@@H]1[C@@]3(C)CC[C@H](O)C(C)(C)[C@@H]3CC[C@]14C)n1c(=O)n(-c3ccccc3)c(=O)n12 (some centres unmarked)	hABHD12 (Homo sapiens, UniProt Q8N2K0)	86%
C=C(C)[C@@H]1CC[C@]2(C)CC[C@]3(C)[C@H](CC[C@@H]4[C@@]5(C)CC[C@H](O)C(C)(C)[C@@H]5CC[C@]43C)[C@@H]12 [Compound 3, Lupeol, reference compound]	hABHD12 (Homo sapiens, UniProt Q8N2K0)	> 100%

----------
# TEST TARGET: hABHD12 (Homo sapiens, UniProt Q8N2K0)
# Construct: expressed in transfected cells; host or cells: HEK293 (transient)
# Sequence (Q8N2K0 1-398): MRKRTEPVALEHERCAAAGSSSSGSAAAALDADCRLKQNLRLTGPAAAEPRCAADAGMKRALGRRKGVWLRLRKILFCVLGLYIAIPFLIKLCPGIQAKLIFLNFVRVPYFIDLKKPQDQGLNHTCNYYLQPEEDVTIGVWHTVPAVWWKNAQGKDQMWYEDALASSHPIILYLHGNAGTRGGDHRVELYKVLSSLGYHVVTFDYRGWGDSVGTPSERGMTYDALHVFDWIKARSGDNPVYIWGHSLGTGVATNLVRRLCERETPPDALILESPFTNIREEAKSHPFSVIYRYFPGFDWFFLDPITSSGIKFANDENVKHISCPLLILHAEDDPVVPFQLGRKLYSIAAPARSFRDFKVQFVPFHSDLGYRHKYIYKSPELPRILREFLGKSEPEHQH
# METHOD SUMMARY: LC-MS assay of ABHD12 activity (1-AG utilization / AA formation) in hABHD12-HEK293 lysates
# Format: biochemical
# ASSAY CONTEXT: s.d., n = 2, dose-response by LC-MS
pIC50: −log10 of the molar value.

COMPOUND	pIC50
C[C@H]1[C@H](C)CC[C@]2(C(=O)O)CC[C@]3(C)C(=CC[C@@H]4[C@@]5(C)CC[C@H](O)C(C)(C)[C@@H]5CC[C@]43C)[C@H]12 [Compound 4, Ursolic acid, reference compound]	5.74
C=C(C)[C@@H]1CC[C@]2(C(=O)O)CC[C@]3(C)[C@H](CC[C@@H]4[C@@]5(C)CCC(=O)C(C)(C)[C@@H]5CC[C@]43C)[C@@H]12	5.48
C=C(C)[C@@H]1CC[C@]2(C(=O)O)CC[C@]3(C)[C@H](CC[C@@H]4[C@@]5(C)CC[C@H](O)C(C)(C)[C@@H]5CC[C@]43C)[C@@H]12 [Compound 1, Betulinic acid, reference compound]	5.60
C=C(C)[C@@H]1CC[C@]2(C=NO)CC[C@]3(C)[C@H](CC[C@@H]4[C@@]5(C)CCC(=NO)C(C)(C)[C@@H]5CC[C@]43C)[C@@H]12	5.40
